Below, each of the molecules is paired with its reported EC50 value.
- System: SARS-CoV-2 USA_WA1/2020 strain
- experiment description: microbe, parasite or virus in culture
- Type: cell-based
- applied conditions: Severe acute respiratory syndrome coronavirus 2, Vero 76, Neutral red (Cytopathic effect/Toxicity); Vero 76 cells; read-out: EC50 (mg/mL) USA_WA1/2020 strain

Asked: Report EC50 for "Nc1ncnn2c([C@@H]3O[C@H](CO)[C@@H](O)[C@H]3O)cc(/C=C/c3ccccn3)c12" please.
Given back: < 0.0001 mg/mL

Asked: Another molecule to check: "Nc1ncnn2c([C@@H]3O[C@H](CO)[C@@H](O)[C@H]3O)cc(/C=C/c3ccc(C(F)(F)F)cc3)c12"
Given back: > 0.032 mg/mL

Asked: Please give the result for "Nc1ncnn2c([C@@H]3O[C@H](CO)[C@@H](O)[C@H]3O)cc(/C=C/c3ccc(F)cc3)c12" too.
Given back: > 0.0058 mg/mL

Asked: Now give it for "C=Cc1cc([C@@H]2O[C@H](CO)[C@@H](O)[C@H]2O)n2ncnc(N)c12" too.
Given back: 0.00016 mg/mL
